// reported normalised viability per item
system: HCC1143; assay: normalised viability (% of control), CellTiter-Blue; higher = more viable cells (100 = DMSO, 0 = benzethonium chloride kill control); conditions: incubation time: 72 h
measure name: normalised viability (%)

molecule | obs value
C[C@@]1(C(=O)Nc2ccc(F)nc2)CCCN1c1nc(Nc2cc(C3CC3)n[nH]2)c2cccn2n1 (1 nM) | 92
O=C(c1ccc(OCCN2CCCCC2)cc1)c1c(-c2ccc(O)cc2)sc2cc(O)ccc12 [Raloxifene] (1 nM) | 86.1
COc1ccc(C2=N[C@@H](c3ccc(Cl)cc3)[C@@H](c3ccc(Cl)cc3)N2C(=O)N2CCNC(=O)C2)c(OC(C)C)c1 [Nutlin-3] (1 nM) | 89.8

Provenance of the data: the supplement of paper PMC4862054
